assay_target: T1, human CD8 on human T cells (human, UniProt P01732 22-235)
T1 construct: whole, on cells; the antibodies were raised against human CD8 alpha; also called CD8 on human CD8+ T cells; hCD8
T1 sequence (P01732 22-235): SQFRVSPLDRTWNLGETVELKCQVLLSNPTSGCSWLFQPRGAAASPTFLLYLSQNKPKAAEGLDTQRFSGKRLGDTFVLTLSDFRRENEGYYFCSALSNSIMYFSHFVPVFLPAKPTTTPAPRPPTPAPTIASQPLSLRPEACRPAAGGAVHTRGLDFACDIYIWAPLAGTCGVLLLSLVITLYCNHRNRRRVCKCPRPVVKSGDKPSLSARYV
protocol_summary: flow cytometry on human CD8+ T cells, titration
Examples of binders with documented Maximum CD8+ T cell Binding (MFI) follow.
Just the number please, in MFI, no unit attached.

Solved cases (2 shown):
humanized 02A01-VH6-VK1 (antibody, human IgG1, V domains shown, human IgG1 format; also called 02-VH6/VK1) VH: EVQLVQSGAEVKKPGATVKISCKASGYTFTDFTMHWVQQAPGKGLEWIGLVNPNNGGNIYAEKFQGRVTLTVDTSTSTAYMELSSLRSEDTAVYYCGRVPLYTSHGMDYWGQGTLVTVSS VL: EIVLTQSPATLSVSPGERATISCRASESVDSYDINSMHWYQQKPGQPPRLLIYRASHLQSGIPARFSGSGSRTDFTLTISSVEPEDFATYYCQQSNEDPLTFGQGTKLEIK; 2620
humanized 02A01-VH6-VK4 (antibody, human IgG1, V domains shown, human IgG1 format; also called 02-VH6-VK4) VH: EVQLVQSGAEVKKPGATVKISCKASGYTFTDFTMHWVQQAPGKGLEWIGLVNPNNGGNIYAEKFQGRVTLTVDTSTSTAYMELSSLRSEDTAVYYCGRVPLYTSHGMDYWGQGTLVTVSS VL: EIVLTQSPATLSVSPGERATISCRASESVDSYDINSMHWYQQKPGQAPRLLIYDASNRATGIPARFSGSGSRTDFTLTISSVEPEDFATYYCQQSNEDPLTFGQGTKLEIK; 1690

Find the recorded Maximum CD8+ T cell Binding (MFI) belonging to humanized 02A01-VH6-VK2 (antibody, human IgG1, V domains shown, human IgG1 format; also called 02-VH6/VK2) VH: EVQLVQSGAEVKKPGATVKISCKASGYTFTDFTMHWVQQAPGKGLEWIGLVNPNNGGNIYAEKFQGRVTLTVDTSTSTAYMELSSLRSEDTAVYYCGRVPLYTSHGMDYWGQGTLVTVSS VL: EIVLTQSPATLSVSPGERATISCRASESVDSYDINSMHWYQQKPGQAPRLLIYRASHLQSGIPARFSGSGSRTDFTLTISSVEPEDFATYYCQQSNEDPLTFGQGTKLEIK and report it. 2770
